- measurement-protocol: Colorectal Xenograft (In vivo HT-29)
- Design: species or system human tumor in nu/nu mice
- condition-summary: mouse, in vivo, ip; week 5 (end of treatment); total active dose 62.5 mg/kg
readout-type: mortality at 840 h

compound: CC[C@@]1(O)C(=O)OCc2c1cc1n(c2=O)Cc2cc3ccccc3nc2-1 [Camptothecin, reference compound]
readout-type: mortality at 840 h
obs-value: 50%
